Origin of measurements: ChEMBL document CHEMBL1201862

In this section, each of the molecules is paired with its reported EC50.
# assayed_system: UniProtKB P38532
# Sequence (P38532 whole entry): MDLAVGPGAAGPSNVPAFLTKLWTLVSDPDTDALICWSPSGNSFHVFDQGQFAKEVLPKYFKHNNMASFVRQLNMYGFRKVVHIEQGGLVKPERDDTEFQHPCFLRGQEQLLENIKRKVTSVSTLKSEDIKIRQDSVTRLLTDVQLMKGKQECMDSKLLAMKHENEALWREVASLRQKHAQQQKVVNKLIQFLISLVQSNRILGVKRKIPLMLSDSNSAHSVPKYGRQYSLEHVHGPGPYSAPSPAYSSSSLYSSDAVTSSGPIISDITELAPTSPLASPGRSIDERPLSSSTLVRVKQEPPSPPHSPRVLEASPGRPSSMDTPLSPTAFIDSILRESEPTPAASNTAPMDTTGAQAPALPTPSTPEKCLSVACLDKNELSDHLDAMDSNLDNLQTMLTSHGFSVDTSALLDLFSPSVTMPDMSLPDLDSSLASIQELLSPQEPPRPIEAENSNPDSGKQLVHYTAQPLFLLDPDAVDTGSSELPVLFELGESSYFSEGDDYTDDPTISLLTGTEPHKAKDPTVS
# protocol: decrease of HSF1-responsive luciferase luminescence – cell-based, NIH3T3, dose retest, confirmation (AID 2382);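 also: NIH3T3 fibroblasts with HSF1-driven luciferase reporter stressed by proteasome inhibitor MG132; luminescence from HSF1-driven luciferase expression after 8 hours of MG132 stress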
# Type: functional
Calls of active or inactive are those of the source.

These solved cases illustrate the format of a correct answer.
structure_as_smiles=CCN(C(=O)c1cc2c(O)nc3ccc(C)cc3c2s1)c1ccc(F)cc1 property_label=EC50 observed="> 195 µM (not active)"
structure_as_smiles=COc1ccc(NC(S)=Nc2ccc(C)c(S(=O)(=O)N3CCCCC3)c2)cc1 property_label=EC50 observed="> 195 µM (not active)"
structure_as_smiles=CC1(C)C[C@H]2C=C(C=O)[C@]3(C=O)C[C@]3(C)[C@H]2C1 property_label=EC50 observed="0.53 µM (active)"
structure_as_smiles=Cc1cccc(Nc2ncccc2C(=O)O)c1C property_label=EC50 observed="> 195 µM (not active)"
structure_as_smiles=CCCCN1CN=C(S)N(c2ccc(C(=O)OCC)cc2)C1 property_label=EC50 observed="> 195 µM (not active)"
structure_as_smiles=COc1ccccc1/N=C1/SCCCN1C property_label=EC50 observed="> 195 µM (not active)"

API: the following record is the query input.
In: # return EC50 for CC(/C=C/c1ccc2c(c1)OCO2)=N/NC(=O)c1ccncc1 , test system: UniProtKB P38532
Out: 35.5 µM (active)

====

# assayed_system: UniProtKB P55212
# Sequence (P55212 24-179 limits assumed): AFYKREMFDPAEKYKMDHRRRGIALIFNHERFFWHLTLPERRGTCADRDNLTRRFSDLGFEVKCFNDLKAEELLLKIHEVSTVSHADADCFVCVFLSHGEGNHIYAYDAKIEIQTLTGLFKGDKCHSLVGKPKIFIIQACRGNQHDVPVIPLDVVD
# Sequence (P55212 194-293 limits assumed): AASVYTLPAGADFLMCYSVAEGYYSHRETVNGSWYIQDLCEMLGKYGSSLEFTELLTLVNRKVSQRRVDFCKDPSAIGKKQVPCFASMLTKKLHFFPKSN
# protocol: inhibition of CASP6 peptide cleavage – biochemical, VEID-R110 fluorescence, cherry-pick, dose response (AID 720632)
Calls of active or inactive are those of the source.
property_label: AC50

In: # return AC50 for CCOc1ccc(CCNC(=O)C2CC(C)=CCC2C(=O)O)cc1OCC (centres undefined) , test system: UniProtKB P55212
Out: 15.5 µM (active)

In: # return AC50 for Nc1nc(Sc2ccc([N+](=O)[O-])c3nonc23)c2[nH]cnc2n1 , test system: UniProtKB P55212
Out: 5.68 µM (active)

In: # return AC50 for O=C(Nc1cc([N+](=O)[O-])ccc1O)c1ccc2c(c1)C(=O)N(Cc1ccco1)C2=O , test system: UniProtKB P55212
Out: 18.5 µM (active)

In: # return AC50 for COc1ccc(-n2c(C)cc(/C=C/c3nc(O)c([N+](=O)[O-])c(O)n3)c2C)cc1 , test system: UniProtKB P55212
Out: 18.8 µM (active)
